tested on: MS2 coat protein; assay: apparent KD of MS2 coat protein, switch OFF state (with FMN for OFF switches, without FMN for ON switches); designed switch direction (-1 OFF switch, 1 ON switch): -1; higher = weaker reporter binding; settings: FMN input: 0 or 200 uM; Eterna round: R93 (includes R88 designs)
# maps each entry to its apparent KD of MS2 coat protein
Numbers only here, please. The scale is nM.

Answered cases to consult:
{"columns": ["Entry Sequence", "Readout Unit", "apparent KD of MS2 coat protein"],
 "data": [
  ["AUCUACCUAGGAUAUACAUGAGGAUCACCCAUGUACAGUUUCAACUAGGGAUACUCACGUAGAAGGAGGUAGAU [JR_Exc003_Sub1210]", "nM", 21.2],
  ["GGGUAACAUGAGGAUCACCCAUGUGAGGAUAUUCUAGGGAUGGAAGCUCGGCCGGCCAGGAGAAGGUACUAAAG [Janelle Amethyst 18 Mod 20 - Jieux - Exclusion 1]", "nM", 36.8],
  ["AAAAAACAUGAGGAUCACCCAUGUAAGGAUAUGUAAAAUAAAAGAAAAAUAAAGAAAAGCAGAAGGUACAUGUA [JL wbt mod 16]", "nM", 44.5],
  ["AAGAAGGGAGGAUAUACAUAAAAGAAAGAAAAGAAAAGAAAACAUGAGGAUCACCCAUGUAGAAGGCCCAAGAA [EteRNA is fun!]", "nM", 29.3],
  ["ACUUAGACAGGAUAUACGUGAGUGGAAAAAGUGUAUCCACUACAUGAGGAUCACCCAUGUAGAAGGGUCUAAGA [Ex2 Design 182: Random 7]", "nM", 19.7],
  ["AAAAAAGCAGGAUAUACGAACAUGUCAAAAGACGUGAAGGGACAUGAGGAUCACCCAUGUAGAAGGGUUAAGAA [JL Stem Breaker 16]", "nM", 36.8]
]}

Please examine the following record next.
Memo: AAAAAGUGAGGAUAUGGUAAAAAAAAAAAAAAAAAAAAACUCCAGAAGGCACAUGAGGAUCACCCAUGUAAAAA [Jolly's Folly - Jieux - Exclusion 4] , reported apparent KD of MS2 coat protein: 5290

====

tested on: MS2 coat protein; experiment: apparent KD of MS2 coat protein; higher = weaker reporter binding; details: Eterna round: R107; input ligand: tryptophan 2.4 mM
The threshold is inclusive: apparent KD of MS2 coat protein of exactly 30 nM counts as class 1; values below receive class 0.

Recorded results for 5 sequences are shown here.
{"columns": ["Entry Sequence", "Discrete Label"],
 "data": [
  ["AUCAGUAGAACUGAUACCAGUCAAAGGCUUUGACCUCAUAACAUGAGGAUCACCCAUGUUGACCCUUGGCAGCAGUAGGCAAGGG [Theo B Ex t4]", "class 0"],
  ["CUCUCAUGAACAUGAGGAUCACCCAUGUAACGAGGACCGGUACGGCCGCCACUCGGUCGUGGAAACUAAUCGAGUGAGGUGGGAG [Tryp A Ex t5c]", "class 1"],
  ["GCGGUACGUACUGAUACCAGAGACAUGAGGAUCACCCAUGUCCCAUGGUCAUGCCUCAGACUCCCUUGGCAGCAGGAUAAGUGCG [Exclusion Theophylline B GF3]", "class 0"],
  ["GGAUAGGACACGGCCGCCACUAUCUAGGAUACUAGCAACAUUUGGGUACUUGAGGAUCACCCAAGUAGGACCGGGUGUCCUAUCG", "class 1"],
  ["UGUACCAUGUCGGCCGCCACUCAUGAUAAACCUGAGGAUCACCCUGGUAGCGUCAAAGACGCUAUGAGGACCGGGACAUGGUACU [TryBS Zipper 2]", "class 0"]
]}

State whether the measured apparent KD of MS2 coat protein reaches 30 nM, counting equality as reaching it, for UGGUCACUAGGAGAUACCAGCCGACAUGAGGAUCACCCAUGUAACCGGCGUCCUCCCUUAGGCCCUUGGCAGCUCGUAGUUGCUC [Vebice]
class 0
